Test system: HepG2
test: cell viability relative to DMSO; higher = less toxic
condition-label: 72 h; 1000 nM
# cell viability values compiled below

[
  {
    "molecule": "CC1=NN=C(c2ccc(N)cc2)c2cc3c(cc2C1)OCO3",
    "tested-system": "HepG2",
    "cell viability, %": 97.9
  },
  {
    "molecule": "CO[C@H]1O[C@@H]2O[C@@]3(C)CC[C@H]4[C@H](C)CC[C@@H]([C@H]1C)[C@@]24OO3 [artemether]",
    "tested-system": "HepG2",
    "cell viability, %": 92.1
  },
  {
    "molecule": "O=C(CCCN1CC=C(n2c(=O)[nH]c3ccccc32)CC1)c1ccc(F)cc1 [droperidol]",
    "tested-system": "HepG2",
    "cell viability, %": 108
  },
  {
    "molecule": "Cc1ccc(-c2ncn(-c3ccc(Nc4nccc(-c5cccc(N6CCOCC6)c5)n4)cc3)n2)cn1 [SR-3306]",
    "tested-system": "HepG2",
    "cell viability, %": 98.9
  },
  {
    "molecule": "CN(C)CCn1cc(S(=O)(=O)c2cccc(F)c2)c2cccnc21",
    "tested-system": "HepG2",
    "cell viability, %": 103
  },
  {
    "molecule": "Cc1c(C)c2c(c(C)c1OC(=O)CCC(=O)O)CC[C@@](C)(CCC[C@H](C)CCC[C@H](C)CCCC(C)C)O2 [D-alpha-tocopheryl-succinate]",
    "tested-system": "HepG2",
    "cell viability, %": 106
  },
  {
    "molecule": "NC[C@H]1O[C@H](O[C@H]2[C@H](O)[C@@H](O[C@H]3O[C@H](CO)[C@@H](O)[C@H](N)[C@H]3O)[C@H](N)C[C@@H]2N)[C@H](N)C[C@@H]1O [tobramycin]",
    "tested-system": "HepG2",
    "cell viability, %": 97.6
  },
  {
    "molecule": "N[C@@H]1CCCN(c2c(/C=C3\\SC(=O)NC3=O)cccc2-c2ccccc2)C1 [AZD1208]",
    "tested-system": "HepG2",
    "cell viability, %": 89.8
  }
]

----------
Listed here are molecules together with their documented cell viability.
Tested on: Caco-2
test: cell viability relative to DMSO; higher = less toxic
condition-label: 72 h; 1 nM

[
  {
    "molecule": "CS(=O)(=O)c1ccc([C@@H](O)[C@@H](CF)NC(=O)C(Cl)Cl)cc1",
    "cell viability / %": 109
  },
  {
    "molecule": "Oc1ccc(C2CNCCc3c2cc(O)c(O)c3Cl)cc1 (stereo not drawn)",
    "cell viability / %": 96
  },
  {
    "molecule": "CCOP(=S)(OCC)Oc1cc(C)nc(C(C)C)n1 [dimpylate]",
    "cell viability / %": 102
  },
  {
    "molecule": "N#Cc1cnc2c(Cl)cc(NCc3cn(CCN4CCCCCC4)nn3)cc2c1Nc1ccc(F)c(Cl)c1",
    "cell viability / %": 92.1
  },
  {
    "molecule": "COc1ccc(C2CNC(=O)C2)cc1OC1CCCC1 (stereo not drawn)",
    "cell viability / %": 95.2
  },
  {
    "molecule": "C[C@@]12C[C@@]3(O)O[C@@H](O1)[C@]1(COC(=O)c4ccccc4)[C@H]3C[C@@]12O[C@@H]1O[C@H](CO)[C@@H](O)[C@H](O)[C@H]1O",
    "cell viability / %": 103
  },
  {
    "molecule": "O=C(NCCS(=O)(=O)c1ccc(C(F)(F)F)cn1)c1ccc(Cl)cc1",
    "cell viability / %": 99.8
  },
  {
    "molecule": "O=C(NCNC(=O)NC1C(=O)NC(=O)N1CO)NC1C(=O)NC(=O)N1CO (stereo not drawn)",
    "cell viability / %": 90.7
  }
]
